Species: Rattus norvegicus
Experiment: Percentage of basal lactate efflux before starting the drug perfusion (15 min) with average basal level 689+/-103 pmol/min
Format: functional
parameter: Basal (%)
Note: unit % is implicit; provide only the numeric part.

query: Requested read-out: Basal. Entry: C[n+]1cccc(-c2ccccc2)c1
result: 240

query: Requested read-out: Basal. Entry: C[n+]1ccc(-c2ccccc2)nc1
result: 102

query: Requested read-out: Basal. Entry: Cc1ccc(-[n+]2ccc(C)cc2)cc1
result: 230

query: Requested read-out: Basal. Entry: C[n+]1cccc2ccccc21
result: 190

query: Requested read-out: Basal. Entry: C[n+]1ccccc1-c1ccccc1
result: 160

query: Requested read-out: Basal. Entry: C[n+]1ccc(C(C)(C)C)cc1
result: 106

query: Requested read-out: Basal. Entry: C[n+]1ccc(-c2ccccc2)cc1
result: 280
